Measurement notes: Caco-2 membrane permeability and efflux test
Assay type: in vitro ADME
Recorded conditions: human, Caco-2, A-B, Caco-2 monolayer, 37° C., 90 minutes, mean of two samples; read-out: Papp Mean
Recorded endpoint: Papp A→B at 90 min (×10⁻⁶ cm/s)

Use these answered entries as a reference point.
>  <Compound>
Nc1ncnc2c1c(-c1ccc(Oc3ccccc3)cc1)nn2C1CCN(CCOCCOCCNc2ccc3c(c2)CN(C2CCC(=O)NC2=O)C3=O)CC1 (centres unmarked) [Control compound 1]

>  <Unit abbreviation>
×10⁻⁶ cm/s

>  <Papp A→B at 90 min>
1.05

$$$$
>  <Compound>
Nc1ncnc2c1c(-c1ccc(Oc3ccccc3)cc1)nn2C1CCN(CCOCCCCCOc2ccc3c(c2)CN(C2CCC(=O)NC2=O)C3=O)CC1 (centres unmarked)

>  <Unit abbreviation>
×10⁻⁶ cm/s

>  <Papp A→B at 90 min>
2.32

$$$$
>  <Compound>
Nc1ncnc2c1c(-c1ccc(Oc3ccccc3)cc1)nn2C1CCN(CCOCCOCCNc2ccc3c(c2)C(=O)N(C2CCC(=O)NC2=O)C3=O)CC1 (centres unmarked) [Control compound 3]

>  <Unit abbreviation>
×10⁻⁶ cm/s

>  <Papp A→B at 90 min>
2.15

$$$$

[a] Nc1ncnc2c1c(-c1ccc(Oc3ccccc3)cc1)nn2C1CCN(CCCCCOCCOc2ccc3c(c2)CN(C2CCC(=O)NC2=O)C3=O)CC1 (centres unmarked)
[b] Nc1ncnc2c1c(-c1ccc(Oc3ccccc3)cc1)nn2C1CCCN(CCOCCOCCOCCOCCNc2cccc3c2C(=O)N(C2CCC(=O)NC2=O)C3=O)C1 (centres unmarked) [Control compound 2]
input: # min-compare on Papp A→B at 90 min between a and b Please respond with the label that marks your chosen entry.
output: b

* * *

Measurement notes: Caco-2 membrane permeability and efflux test
Assay type: in vitro ADME
Recorded conditions: human, Caco-2, A-B, Caco-2 monolayer, 37° C., 90 minutes, Sample-01; read-out: Papp Sample-01
Recorded endpoint: Papp A→B at 90 min (×10⁻⁶ cm/s)

>  <Molecule>
Nc1ncnc2c1c(-c1ccc(Oc3ccccc3)cc1)nn2C1CCN(CCOCCCCCOc2ccc3c(c2)CN(C2CCC(=O)NC2=O)C3=O)CC1 (centres unmarked) [Compound 2]

>  <Unit abbreviation>
×10⁻⁶ cm/s

>  <Papp A→B at 90 min>
2.37

$$$$

[a] Nc1ncnc2c1c(-c1ccc(Oc3ccccc3)cc1)nn2C1CCN(CCCCCOCCOc2ccc3c(c2)CN(C2CCC(=O)NC2=O)C3=O)CC1 (centres unmarked) [Compound 1]
[b] Nc1ncnc2c1c(-c1ccc(Oc3ccccc3)cc1)nn2C1CCCN(CCOCCOCCOCCOCCNc2cccc3c2C(=O)N(C2CCC(=O)NC2=O)C3=O)C1 (centres unmarked) [Control compound 2]
[c] Nc1ncnc2c1c(-c1ccc(Oc3ccccc3)cc1)nn2C1CCN(CCOCCOCCNc2ccc3c(c2)C(=O)N(C2CCC(=O)NC2=O)C3=O)CC1 (centres unmarked) [Control compound 3]
input: Arrange items by their Papp A→B at 90 min values in increasing order. Sort and list the labels as requested.
output: b, c, a

* * *

Measurement notes: Caco-2 membrane permeability and efflux test
Assay type: in vitro ADME
Recorded conditions: human, Caco-2, A-B, Caco-2 monolayer, 37° C., 90 minutes, Sample-02; read-out: Papp Sample-02
Recorded endpoint: Papp A→B at 90 min (×10⁻⁶ cm/s)

>  <Compound>
Nc1ncnc2c1c(-c1ccc(Oc3ccccc3)cc1)nn2C1CCN(CCOCCOCCNc2ccc3c(c2)CN(C2CCC(=O)NC2=O)C3=O)CC1 (centres unmarked) [Control compound 1]

>  <Unit abbreviation>
×10⁻⁶ cm/s

>  <Papp A→B at 90 min>
1.04

$$$$
>  <Compound>
Nc1ncnc2c1c(-c1ccc(Oc3ccccc3)cc1)nn2C1CCN(CCOCCCCCOc2ccc3c(c2)CN(C2CCC(=O)NC2=O)C3=O)CC1 (centres unmarked)

>  <Unit abbreviation>
×10⁻⁶ cm/s

>  <Papp A→B at 90 min>
2.26

$$$$
>  <Compound>
Nc1ncnc2c1c(-c1ccc(Oc3ccccc3)cc1)nn2C1CCCN(CCOCCOCCOCCOCCNc2cccc3c2C(=O)N(C2CCC(=O)NC2=O)C3=O)C1 (centres unmarked) [Control compound 2]

>  <Unit abbreviation>
×10⁻⁶ cm/s

>  <Papp A→B at 90 min>
1

$$$$

[I] Nc1ncnc2c1c(-c1ccc(Oc3ccccc3)cc1)nn2C1CCN(CCCCCOCCOc2ccc3c(c2)CN(C2CCC(=O)NC2=O)C3=O)CC1 (centres unmarked)
[II] Nc1ncnc2c1c(-c1ccc(Oc3ccccc3)cc1)nn2C1CCN(CCOCCOCCNc2ccc3c(c2)C(=O)N(C2CCC(=O)NC2=O)C3=O)CC1 (centres unmarked) [Control compound 3]
input: Input pair: I , II . Output: entry with lower Papp A→B at 90 min. To answer, give the label that identifies your chosen option.
output: II
(II: 2.16 ×10⁻⁶ cm/s, I: 5.16 ×10⁻⁶ cm/s)
